// data source = the supplement of paper PMC9112550

Below, each of the sequences is paired with its reported shrunken log2 fold change value.
test system: Escherichia coli TOP10; experiment: shrunken log2 fold change of peptide-encoding DNA abundance (4.5 h post-induction vs induction); higher = less antimicrobial activity (less host growth inhibition); settings: time post-induction: 4.5 h; library: site-saturation at positions 5, 18, 19, 20
Keep the answer to the number alone.

| Polymer Sequence | shrunken log2 fold change |
| --- | --- |
| RRIRLRPPRLPRPRPRPSKIPRP | -0.349 |
| RRIRYRPPRLPRPRPRPEVGPRP | 0.0159 |
| RRIRIRPPRLPRPRPRPAPDPRP | 0.248 |
| RRIRTRPPRLPRPRPRPYPMPRP | -1.43 |
| RRIRPRPPRLPRPRPRPDRQPRP | 0.099 |

Lookup result for RRIRHRPPRLPRPRPRPDWIPRP ; measured shrunken log2 fold change: -0.111

----------
tested on: Escherichia coli TOP10; assay: shrunken log2 fold change of peptide-encoding DNA abundance (4.5 h post-induction vs induction); higher = less antimicrobial activity (less host growth inhibition); details: time post-induction: 4.5 h; library: site-saturation at positions 5, 18, 19, 20
Please note: t applies when shrunken log2 fold change is 0.2 or greater, and f applies otherwise.

Worked cases, answers included:
| Polymer Sequence | Measured On | Cat |
| --- | --- | --- |
| RRIRGRPPRLPRPRPRPVPNPRP | Escherichia coli TOP10 | t |
| RRIRARPPRLPRPRPRPNAAPRP | Escherichia coli TOP10 | t |

// query Given the entry RRIRFRPPRLPRPRPRPRAMPRP , answer whether its shrunken log2 fold change meets or surpasses 0.2.
// result t

// query Evaluate RRIRLRPPRLPRPRPRPNTPPRP : shrunken log2 fold change at minimum 0.2?
// result f

// query # check: shrunken log2 fold change of RRIRARPPRLPRPRPRPFPGPRP is greater than or equal to 0.2
// result f

// query Can RRIRARPPRLPRPRPRPRECPRP be said to have shrunken log2 fold change at or above 0.2?
// result t

// query Hi, just wondering whether RRIRGRPPRLPRPRPRPEVWPRP shows shrunken log2 fold change of 0.2 or higher.
// result t

// query Can RRIRQRPPRLPRPRPRPEKFPRP be said to have shrunken log2 fold change at or above 0.2?
// result f

// query Entry RRIRWRPPRLPRPRPRPYAWPRP : is its shrunken log2 fold change no less than 0.2?
// result f

// query Reported shrunken log2 fold change at or above 0.2? RRIRPRPPRLPRPRPRPWVCPRP
// result t

// query Quick check, shrunken log2 fold change >= 0.2? RRIRERPPRLPRPRPRPLHAPRP
// result f

// query Reported shrunken log2 fold change at or above 0.2? RRIRDRPPRLPRPRPRPYVAPRP
// result f

----------
test system: Escherichia coli TOP10; experiment: shrunken log2 fold change of peptide-encoding DNA abundance (4.5 h post-induction vs induction); higher = less antimicrobial activity (less host growth inhibition); conditions: time post-induction: 4.5 h; library: site-saturation at positions 5, 18, 19, 20;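 note: peptides expressed intracellularly from a pBAD plasmid library in pooled LB shake-flask culture, induced with 0.3% L-arabinose, DNA abundance read by NGS, three biological replicates, DESeq2 with apeglm shrinkage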
Endpoint Label: shrunken log2 fold change

Recorded shrunken log2 fold change, per entry:
| Polymer Sequence | Measured On | Observed Value |
| --- | --- | --- |
| RRIRCRPPRLPRPRPRPYAWPRP | Escherichia coli TOP10 | -0.553 |
| RRIRMRPPRLPRPRPRPQITPRP | Escherichia coli TOP10 | -0.166 |
| RRIRKRPPRLPRPRPRPVEYPRP | Escherichia coli TOP10 | 0.0119 |
| RRIRGRPPRLPRPRPRPCWSPRP | Escherichia coli TOP10 | 0.144 |

Given item RRIRERPPRLPRPRPRPSWIPRP , the value recorded as its shrunken log2 fold change is -0.0746

Entry RRIRWRPPRLPRPRPRPFLFPRP , shrunken log2 fold change reported as 0.095

The reported value for RRIRGRPPRLPRPRPRPLSPPRP in terms of shrunken log2 fold change is 0.435

shrunken log2 fold change recorded for this sequence, RRIRQRPPRLPRPRPRPVQLPRP , is 0.163
